Assay: Cell Viability - Renal Proximal Tubule (AID 545);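 note: cells exposed to compound for 40 hours; nearly all actives have a fitted effect of over 40% in size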; note: potency is the fitted concentration of half-maximal effect
Details: renal proximal tubule cells viability, primary cells of rat origin
Source text: NIH Chemical Genomics Center [NCGC] NIH Molecular Libraries Screening Centers Network [MLSCN] National Institutes of Environmental Health Sciences [NIEHS] National Toxicology Program [NTP] We have developed a 1536-well cell-based assay for quantitative high throughput screening (qHTS) against a number of cell lines to determine in vitro cytotoxicity of small molecules. […] 8. Detection; Luminescence; Viewlux plate reader […]
Records with an inconclusive call do not appear. The source made the active and inactive calls. Calls come from the whole dose curve; as a rule, active = well fitted cell-killing curve with a large enough effect; inconclusive = small, poorly fitted or top-dose-only effect; inactive = flat fitted curve, though single readings scatter.
measured parameter: Potency

Examples from the recorded data:
O=C1NC(=O)C(c2ccccc2)(c2ccccc2)N1 = inactive
CCCNC(=O)NS(=O)(=O)c1ccc(Cl)cc1 = inactive
CC1=C(/C=C/C(C)=C/C=C/C(C)=C/C(=O)Nc2ccc(O)cc2)C(C)(C)CCC1 = 20 µM (active)
CC(=O)O[C@]1(C(C)=O)CC[C@H]2[C@@H]3C=C(Cl)C4=CC(=O)[C@@H]5C[C@@H]5[C@]4(C)[C@H]3CC[C@@]21C = inactive

Next compound, Potency to be filled in.
Query: Potency; subject: `CCn1cc(C(=O)O)c(=O)c2ccc(C)nc21`
inactive

----------
Test: Nrf2 qHTS screen for inhibitors: Validation (AID 493153)
Conditions: A549 ARE-Fluc reporter, 18-24 h; measured here: cytotoxicity max response
Results filed as inconclusive are left out.
Listed compounds paired with reported viability change
Dear colleague, please return just the value in %, with no unit written.

Examples from the recorded data:
NCCS = -10.7
CC(=O)O[C@]1(C(C)=O)CC[C@H]2[C@@H]3C=C(Cl)C4=CC(=O)[C@@H]5C[C@@H]5[C@]4(C)[C@H]3CC[C@@]21C = 2.19
CN(C)CCC(c1ccccc1)c1ccccn1 (centres undefined) = 3.7
O=C(NCCN1CCOCC1)c1ccc(Cl)cc1 = -1.31

Query: viability change; subject: `CCCCCN(C)CCC(O)(P(=O)(O)O)P(=O)(O)O`
-4.22

Then `COc1cccc(-c2cc(=O)c3ccccc3o2)c1N` ?
-8.39

Then `CC(=O)CCCCn1c(=O)c2c(ncn2C)n(C)c1=O` ?
-8.24

Then `NC(N)=Nc1nc(CSCC/C(N)=N/S(N)(=O)=O)cs1` ?
-0.651

Then `O=C1NC(=O)C(c2ccccc2)(c2ccccc2)N1` ?
-3.24

----------
Assay: qHTS for identification of novel therapeutic agents for treatment of microphthalmiaassociated transcription factor (MiT) renal cell carcinoma (RCC) (AID 1963991);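 note: curves scaled with 100% = DMSO viability and 0% = empty wells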
Details: TFE3-RCC viability, CellTiter-Glo, 48 h; measured here: UOK124 Z-AUC; stronger effect = lower value
Records with an inconclusive call do not appear.
We label by threshold. Values of z-score strictly beneath 0.6 are True. Values of 0.6 and up are False.

CC[C@H]1OC(=O)[C@H](C)[C@@H](O[C@H]2C[C@@](C)(OC)[C@@H](O)[C@H](C)O2)[C@H](C)[C@@H](O[C@@H]2O[C@H](C)C[C@H](N(C)C)[C@@H]2O)[C@](C)(O)C[C@@H](C)CN(C)[C@H](C)[C@@H](O)[C@]1(C)O = False
CCC(=O)O[C@]1(C(=O)CO)CC[C@H]2[C@@H]3CCC4=CC(=O)CC[C@]4(C)[C@@H]3CC[C@@]21C = True
COc1ccc2cccc(CCNC(C)=O)c2c1 = False
CC1CCC(C(=O)N(c2cc(C#CC(C)(C)C)sc2C(=O)O)C2CCC(O)CC2)CC1 (centres undefined) = False
O=C(O)C(O)Cc1ccc(O)c(O)c1 (centres undefined) = False
O=C(O)c1ccc(-c2c[nH]c3ncc(-c4ccccc4)cc23)cc1C1CCCC1 = True

Record `O=C(O)c1cc(O)c2c(c1)C(=O)c1cccc(O)c1C2=O` : is its z-score strictly below 0.6?
True

Then COC1CCC(N(C(=O)C2CCC(C)CC2)c2cc(C3=CCCCC3)sc2C(=O)O)CC1 (centres undefined) ?
False

Then `NC[C@@H]1O[C@@H](O[C@H]2[C@@H](O)[C@H](O[C@@H]3[C@@H](O)[C@@H](N)C[C@H](N)[C@H]3O[C@H]3O[C@H](CN)[C@@H](O)[C@@H](O)[C@H]3N)O[C@H]2CO)[C@H](N)[C@@H](O)[C@@H]1O` ?
False

Then `CCOc1ccc(Nc2nc(-c3c(C)nc4ccccn34)cs2)cc1` ?
True

Then `O=C1C[C@@H](c2ccc(O)cc2)Oc2cc(O)cc(O)c21` ?
False

Then `OC[C@H]1O[C@@H](Oc2cc(O)cc(C=Cc3ccc(O)cc3)c2)[C@H](O)[C@@H](O)[C@H]1O` ?
True

Then `O=C(Nc1c(Cl)cncc1Cl)c1ccc(OC(F)F)c(OCC2CC2)c1` ?
True

Then NC1CCC(Nc2nc(Nc3ccc(C(=O)N4CCCCC4)cc3)c3ncn(-c4cccc(F)c4)c3n2)CC1 (centres undefined) ?
True

----------
Assay: Primary qHTS for inhibitors of nuclear receptor binding SET domain protein 2 (NSD2) in an isogenic RCH-ACV NSD2 p.E1099K mutant (9B) (AID 1645876); note: nearly all actives have a fitted effect of over 70% in size
Conditions: RCH-ACV (leukaemia line) NSD2 E1099K (9B) viability, CellTiter-Glo, 72 h; series mostly up to 44.9 µM
Results filed as inconclusive are left out. Calls of active or inactive are those of the source. The call rests on the fitted dose curve; in most records, active means well fitted inhibition curve with a large enough effect; inconclusive means small, poorly fitted or top-dose-only effect; inactive means flat fitted curve, though single readings scatter.
Hello, when you answer, please use one of the following outcomes: 1.0 = active, 0.0 = inactive

Take a look at these entries with their results.
CC1(C)CCC2=C(O1)c1ccccc1C(=O)C2=O = 1.0
CN(C)Cc1ccc(-c2nc3cccc4c3n2CCNC4=O)cc1 = 1.0
CN(C[C@@H]1COCCO1)S(=O)(=O)Nc1ccc2ccc3ncc(-c4cnn(C)c4)cc3c(=O)c2c1 = 1.0
Cc1ccc(F)c(NC(=O)Nc2ccc(-c3cccc4[nH]nc(N)c34)cc2)c1 = 1.0
c1ccc2c(-c3cnn4cc(-c5ccc(N6CCNCC6)cc5)cnc34)ccnc2c1 = 1.0

Lab log entry: Cc1cccc(C)c1OCC(C)N (stereo not given) — outcome as called in the assay?
0.0

Then `CCOc1ccc(Nc2nc(-c3c(C)nc4ccccn34)cs2)cc1` ?
1.0

----------
Tested on: CASKI
Assay: Primary qHTS to identify gynecologic anti-cancer compounds using libraries of approved drugs and bioactive compounds (AID 1345084); note: % is set by controls: 0 for no effect and ±100 for the full control effect; nearly all actives have a fitted effect of over 55% in size
Conditions: Gynecologic cancer cell panel viability, ATPlite luminescence, 48 h; series mostly up to 57.5 µM
Records with an inconclusive call do not appear. The source made the active and inactive calls. Calls follow the shape of the dose curve; as a rule, active = well fitted cell-killing curve with a large enough effect; inconclusive = small, poorly fitted or top-dose-only effect, or effect the other way; inactive = flat fitted curve, though single readings scatter.
measured parameter: outcome

CCn1cc(C(=O)O)c(=O)c2ccc(C)nc21 = inactive
COC[C@@H](c1ccc(C(F)(F)F)cc1)N1CCN(C2(C)CCN(C(=O)c3c(C)ncnc3C)CC2)C[C@H]1C = inactive
CC(C)[C@H](CO)Nc1nc(Nc2ccc(C(=O)O)c(Cl)c2)c2ncn(C(C)C)c2n1 = inactive
CCn1c(C(=O)N(C2CC2)C2CC2)cc2c3c(ncn3C)c(Nc3cc(C)n(C)n3)nc21 = inactive
O=C1NCC2(CCN(CCc3ccccc3)CC2)O1 = inactive
CC(C)(C)OC(=O)N[C@H]1CCCCCC=C[C@@H]2C[C@@]2(C(=O)NS(=O)(=O)C2CC2)NC(=O)[C@@H]2C[C@@H](OC(=O)N3Cc4cccc(F)c4C3)CN2C1=O = inactive

Next compound, outcome to be filled in.
Query: outcome; subject: CS(=O)(=O)N(Cc1ccco1)CC(O)Cn1c2ccccc2c2ccccc21 (configuration not stated)
inactive

----------
Experiment: Quantitative High-Throughput drug screen in 47 multiple myeloma cell lines against the NCATS MIPE library collection: NCIH929_DSMZ cell viability assay (AID 1918978); note: nearly all actives have a fitted effect of over 35% in size
Details: NCI-H929 myeloma viability, CellTiter-Glo ATP, 48 h; series mostly up to 45.8 µM
Records with an inconclusive call do not appear. The source made the active and inactive calls. Calls come from the whole dose curve; as a rule, active = well fitted cell-killing curve with a large enough effect; inconclusive = small, poorly fitted or top-dose-only effect; inactive = no such curve, though single readings can be large or run the other way.
Hello, when you answer, please use one of the following outcomes: active, inactive

Take a look at these entries with their results.
O=C1C[C@@H](c2ccc(O)cc2)Oc2cc(O)cc(O)c21 = inactive
CO[C@H]1C=CC=C(C)C(=O)NC2=CC(=O)C(NCCN(C)C)=C(C[C@@H](C)C[C@H](OC)[C@@H](O)[C@@H](C)C=C(C)[C@@H]1OC(N)=O)C2=O = active
O=C(NCc1ccncc1)C12C[C@H]3C[C@@H](C1)CC(c1ccc(Cl)cc1)(C3)C2 = inactive
N#Cc1ccc(NC(=O)Nc2ccccc2Br)c2n[nH]nc12 = active
Nc1ncnc2c1ncn2[C@@H]1O[C@@H](CO)[C@H](O)[C@H]1O = inactive
CC(C)(Cc1ccc2ccccc2c1)NC[C@@H](O)COc1cccc(Cl)c1C#N = inactive
Cc1c(O)cccc1C(=O)N[C@@H](CSc1ccccc1)[C@H](O)CN1C[C@H]2CCCC[C@@H]2C[C@@H]1C(=O)NC(C)(C)C = active
COc1cc2nc(-c3ccc(N4CCN(C)CC4)cc3)nc(NCCN3CCOCC3)c2cc1OC = active

Lab log entry: `CCCCCN(C)CCC(O)(P(=O)(O)O)P(=O)(O)O` — outcome as called in the assay?
inactive

Then `Nc1ncnc2ccccc12` ?
active
